# Test Method Notes: Formulation of amorphous Compound 1-(S): solubility in vehicles
# Type: physicochemical
# Measurement Parameters: aqueous with cosolvent or surfactant or cyclodextrin, thermodynamic from solid; 0.5% MC in 50 mM citrate, pH 3.0; target concentration 0.5 mg/mL; final pH 3.00
# From the text: Amorphous Compound 1-(S) was formulated as described in the table below. Table 2 indicates the target concentration, final pH, solubility, and some observation of the resulting formulations.
Parameter: solubility

INSERT INTO results (compound, value_measured) VALUES
  ('Cc1noc(C)c1-c1ccc2[nH]c(=O)n3c2c1OC[C@@H]3c1ccccn1 [Amorphous Compound 1-(S)]', '> 500 µg/mL');
